- System: c-Src;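 further: 11-residue human phosphosite peptides and single-mutation variants displayed on the E. coli surface, counted by deep sequencing, each peptide's frequency after selection divided by its frequency in the unselected input library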;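 further: frequency after pTyr selection over input frequency; kinase dosed for 20-30% of maximal phosphorylation in three min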
- assay_method_text: phosphorylation enrichment, bacterial display (enrichment ratio); higher = better substrate or ligand; peptides without Tyr show the background

| sequence_content | target_system | phosphorylation enrichment |
| --- | --- | --- |
| LEKISYVFMKR [SSX7_Y48_YF] | c-Src | 0.581 |
| PEADKYCLTYA [FGG_Y300_R301C] | c-Src | 0.821 |
| NAMRRYIEEFQ [MNS1_Y244] | c-Src | 0.347 |
| SSAETYSRMRL [NBEAL2_Y1835] | c-Src | 0.471 |
| CDKEFYSVHNK [MET_Y1235_Y1230C_YF] | c-Src | 0.491 |
| RPPFTYATLIH [FOXP3_Y342_R347H] | c-Src | 3.31 |
| EPNSRYTCKLE [USH2A_Y3745_Y3747C] | c-Src | 0.539 |
| PINLFYLMDLS [ITGB2_Y131_D128N_YF] | c-Src | 1.11 |
| STKPQYQPGEN [SRC_Y530_E527K] | c-Src | 0.396 |
| IQTDGYRAPEA [UHMK1_Y197] | c-Src | 0.398 |
| HLQDEYDFKCK [STAT1_Y170_D165H] | c-Src | 0.871 |
| IKRIAYEFVEM [ADA_Y84] | c-Src | 0.383 |
| DLVLQYLRVPL [F9_Y371_A366D] | c-Src | 0.46 |
| SSQTVYQRVEG [TFR2_Y23] | c-Src | 0.585 |
| FFCRWYRNRKS [EREG_Y144_YF] | c-Src | 0.51 |
| KKHIPCREHKS [CSNK1G2_Y206_Y206C] | c-Src | 0.832 |
| HNLNFYKKTTN [FGFR3_Y648_D646N_YF] | c-Src | 0.565 |
| INVTIYGKTFR [EFHC1_Y177_I174V] | c-Src | 0.641 |
| CTTIHYNFMHN [TP53_Y234_C238H_YF] | c-Src | 0.432 |
| SVNIRYLLFPS [SERAC1_Y548] | c-Src | 0.463 |
| TLSGIYQYSIA [FOXL2_Y81_I84S] | c-Src | 4.21 |
| TLKVGYTEKQR [EPHA3_Y659] | c-Src | 0.328 |
| SGVSYYINLCQ [IGF2R_Y2025_N2020S] | c-Src | 0.33 |
| GLPQTYCVSGP [DYSF_Y1684] | c-Src | 0.524 |
| CRAVKYLQMVG [AVPR2_Y117] | c-Src | 0.401 |
| SSTAMYSAAGR [PSMB1_Y8_P11A] | c-Src | 0.424 |
| RQSHNYLGGFA [SYK_Y47_R45H] | c-Src | 0.394 |
| NPPGMYPVTGP [LPP_Y346] | c-Src | 0.389 |
| MKGDFYCFLAE [YWHAG_Y131_R132C_YF] | c-Src | 0.592 |
| RYFTTYDTNGR [CLCA1_Y665] | c-Src | 0.774 |
| KKEGPYDVVVL [PARK7_Y67] | c-Src | 1.33 |
| RLEPVYFVAPA [LAMC2_Y250_D247E] | c-Src | 6.33 |
| QEVLEYFMKQM [PIK3CA_Y1038_A1035V] | c-Src | 0.963 |
| NNIDFYKKTTN [FGFR2_Y657_YF] | c-Src | 0.422 |
| KPGLKYVTFGN [GALNTL5_Y404_YF] | c-Src | 0.488 |
| NDPMEYAKQHG [ASS1_Y163_L160P] | c-Src | 0.396 |
| LLKKVYLMLDN [STAT1_Y203_M202V] | c-Src | 0.816 |
| DFCDLYGGEKF [PTPN11_Y66_Y63C_YF] | c-Src | 2.78 |
| SVTSTYSPALN [TP53_Y126_C124S] | c-Src | 0.488 |
| PEYVVYKPQME [CCRL2_Y170_F167Y] | c-Src | 9.4 |
| EGWQVYRLGTR [MISP_Y95_A99T] | c-Src | 3.69 |
| IKGNMYFENSF [EGFR_Y112_R108K_YF] | c-Src | 0.657 |
| RQQEVYLLYKQ [RARRES1_Y159_D158V] | c-Src | 1.41 |
| SSREGYVSHHN [FAM83B_Y433] | c-Src | 0.399 |
| GEDLSYGDLPP [IRS1_Y151_V154L] | c-Src | 0.582 |
| QGRQTYLLQPA [DDR2_Y813_P815L] | c-Src | 0.701 |
| PDSVDYPKKGY [CTSK_Y121_R122P] | c-Src | 0.569 |
| QNTGDYCDLFG [PTPN11_Y62_Y63C_YF] | c-Src | 0.789 |
| LRRFIYRPPDR [OTOF_Y1231] | c-Src | 0.954 |
| LLANAYIFVVQ [L1CAM_Y418_YF] | c-Src | 0.538 |
| DNEALYDICFC [TUBB3_Y208_R213C] | c-Src | 6.25 |
| YIPSNYVAEDR [FRK_Y104] | c-Src | 0.536 |
| NYRPGYNNFYN [USH2A_Y467] | c-Src | 0.516 |
| DLITAYRAHGF [PDHA1_Y118_H113D] | c-Src | 0.373 |
| YLTSSYINIST [IL23R_Y178] | c-Src | 0.466 |
| PYRSIYFSSPK [MPG_Y75] | c-Src | 0.903 |
| DSMQSYDLDYP [UNC13B_Y243] | c-Src | 0.474 |
